target: T1, rat insulin receptor isoform without exon 11 (rat, UniProt P15127-2 27-1371, limits assumed); assay: receptor binding, standard methods (FIG. 2)
T1 construct: also called RIR-11; RIR - 11
T1 sequence (P15127 other isoform, or with tags, fused parts or gaps limits assumed): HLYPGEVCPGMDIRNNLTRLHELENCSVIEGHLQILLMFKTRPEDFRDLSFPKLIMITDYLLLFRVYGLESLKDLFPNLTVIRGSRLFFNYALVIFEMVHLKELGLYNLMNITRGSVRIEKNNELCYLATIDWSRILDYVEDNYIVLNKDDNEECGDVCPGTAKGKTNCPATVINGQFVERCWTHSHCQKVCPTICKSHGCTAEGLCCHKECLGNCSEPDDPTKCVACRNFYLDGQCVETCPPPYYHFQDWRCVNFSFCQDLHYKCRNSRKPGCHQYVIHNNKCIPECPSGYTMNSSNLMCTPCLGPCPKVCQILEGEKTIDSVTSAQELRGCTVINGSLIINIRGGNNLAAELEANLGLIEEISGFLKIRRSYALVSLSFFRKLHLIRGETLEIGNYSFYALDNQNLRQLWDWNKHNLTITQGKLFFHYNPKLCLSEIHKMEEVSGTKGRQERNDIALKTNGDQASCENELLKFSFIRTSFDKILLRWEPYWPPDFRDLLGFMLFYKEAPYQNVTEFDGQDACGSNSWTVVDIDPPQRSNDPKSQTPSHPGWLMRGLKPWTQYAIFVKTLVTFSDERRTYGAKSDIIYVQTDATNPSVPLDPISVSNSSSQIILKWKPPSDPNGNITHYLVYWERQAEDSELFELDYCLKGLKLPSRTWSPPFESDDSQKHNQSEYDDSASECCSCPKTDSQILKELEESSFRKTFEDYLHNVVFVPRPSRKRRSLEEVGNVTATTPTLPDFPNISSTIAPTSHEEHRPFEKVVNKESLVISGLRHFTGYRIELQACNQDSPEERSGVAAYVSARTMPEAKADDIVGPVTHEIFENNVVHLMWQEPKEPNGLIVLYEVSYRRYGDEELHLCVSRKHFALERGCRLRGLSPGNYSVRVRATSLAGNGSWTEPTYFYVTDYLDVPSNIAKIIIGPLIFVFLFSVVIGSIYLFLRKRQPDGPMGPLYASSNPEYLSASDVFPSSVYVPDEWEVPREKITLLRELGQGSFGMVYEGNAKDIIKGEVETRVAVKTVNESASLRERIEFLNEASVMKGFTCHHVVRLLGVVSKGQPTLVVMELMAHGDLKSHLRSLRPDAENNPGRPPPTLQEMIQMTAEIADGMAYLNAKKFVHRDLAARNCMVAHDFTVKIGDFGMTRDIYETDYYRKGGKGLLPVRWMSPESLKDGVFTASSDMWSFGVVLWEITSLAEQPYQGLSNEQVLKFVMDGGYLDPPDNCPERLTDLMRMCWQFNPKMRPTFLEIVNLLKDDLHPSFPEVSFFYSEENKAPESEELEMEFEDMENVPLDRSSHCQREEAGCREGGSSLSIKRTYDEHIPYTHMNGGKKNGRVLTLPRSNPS
Ends that are not written are not given here.
Note to self: use Y only for relative affinity readings below 10; a reading exactly at 10 still gets N.

Q) Decide: relative affinity of Ac-SLEEEWAQIQCEVWGRGCPSESFYGWFERQL (cysteine pairing not given here) [S667] strictly below 10?
A) N

Q) Decide: relative affinity of Ac-SLEEEWAQIQCEVWGRGCPSESFYDWFERQLG (cysteine pairing not given here) [S671] strictly below 10?
A) N

Q) Decide: relative affinity of Ac-SLEEEWAQIQCEVWGRGCPSESFYDWFERQL (cysteine pairing not given here) [S636] strictly below 10?
A) N

Q) Decide: relative affinity of SLEEEWAQIECEVYGRGCPSVRGFQGGTVWPGYEWLRNAAKK [S626] strictly below 10?
A) N

Q) Decide: relative affinity of {MeO‑PEG5000}-SLEEEWAQIECEVYGRGCPSESFYDWFERQL (cysteine pairing not given here) [S660] strictly below 10?
A) Y

Q) Decide: relative affinity of Ac-SLEEEWAQIECEVWGRGCPSEGFYNAIELLS (cysteine pairing not given here) [S726] strictly below 10?
A) N

Q) Decide: relative affinity of Ac-SLEEEWAQIQCEVWGRGCPSESFYGWFERQLG (cysteine pairing not given here) [S733] strictly below 10?
A) N

Q) Decide: relative affinity of SLEEEWAQIEAEVWGRGAPSESFYDWFERQLG [S574] strictly below 10?
A) Y

Q) Decide: relative affinity of SLEEEWAQVECEVYERGCPSESFYDWFERQL [S696] strictly below 10?
A) Y
